Entries and their growth
test system: CAKI-1 renal; experiment: NCI-60 one-dose screen, 48 h (100 = growth as untreated, 0 = no growth, -100 = all killed); settings: 10 µM
The panel holds about 83,000 compounds, 20% with a hit somewhere; the sample as a whole holds those more often.
Report the figure in % without appending any unit label.

Please review the following examples before continuing.
Request: Reported growth for Cc1ccc(C(C)C)cc1NC(=O)c1ccccc1N(C)C : what is it?
Response: 70.6

Request: What about COc1ccc(CN2[C@@H](C(=O)NCc3ccc(C(=O)NO)cc3)Cc3c([nH]c4ccccc34)[C@@H]2C)cc1 ?
Response: 39.5

Request: Can you handle O=c1c2ccccc2nc(COc2ccccc2)n1/N=C/c1ccc(F)cc1 next?
Response: 94.3

Request: Please give the result for CC1(C)CC[C@]23CC[C@]4(C)[C@H](CC[C@@H]5[C@@]6(C)CC[C@H](N)C(C)(C)[C@@H]6CC[C@]54C)[C@H]2[C@H]1OC3=O too.
Response: -98.2

Request: Item: COc1cc2c3c(n(CCCn4ccnc4)c(=O)c2cc1OC)-c1nc2c(cc1C3=O)OCO2
Response: 10.2

More entries:
Request: Item CN1CCN(c2ccc(Nc3nc(NCCCNC(=O)C4CCCCC4)c4sccc4n3)cc2)CC1 has what recorded growth?
Response: 57.2

Request: What do we get for CN(C)c1nc(NCCNS(=O)(=O)c2ccc(C(=O)/C=C/c3ccccc3)cc2)nc(Nc2ccc(F)cc2)n1 ?
Response: 38.1

Request: Next entry: O=C(Nc1ccc(I)cc1)Nc1nc2ccc([N+](=O)[O-])cc2s1
Response: -100

---

tested on: HCT-116 colon; assay: NCI-60 one-dose screen, 48 h (100 = growth as untreated, 0 = no growth, -100 = all killed); conditions: 10 µM
This is part of a sample that, as a whole, favours compounds with a hit. Of some 83,000 tested, about 20% had one in any assay.
quantityName: growth (%)
State just the number; it will be interpreted in %.

Request: # input molecule: Cc1ccc(-c2nc(Nc3ccc(C)c(S(N)(=O)=O)c3)c3ccccc3n2)cc1 ; wanted: its growth
Response: 29.5

New cases:
Request: Sample Nc1nc(Nc2ccccc2)nn1Cc1c(Cl)cccc1Cl — what was its growth?
Response: 22.4

Request: Try the molecule COc1ccc2[nH]c(=O)c(CSc3cccc(N)c3)cc2c1
Response: 52.5

Request: Then this molecule: COC(=O)C[C@](O)(CCCC(C)(C)O)C(=O)O[C@H]1C(OC)=C[C@@]23CCC(=O)N2CCc2cc4c(cc2[C@@H]13)OCO4
Response: 89.7

---

tested on: NCI-H23 lung; test: NCI-60 one-dose screen, 48 h (100 = growth as untreated, 0 = no growth, -100 = all killed); conditions: 10 µM
This is part of a sample that, as a whole, favours compounds with a hit. Of some 83,000 tested, about 20% had one in any assay.
growth of 60% or higher: Satisfied. Under 60%: Not satisfied.

Past entries and their recorded results:
Request: Reported growth at or above 60%? O=C(CNc1nc(-c2ccccc2)cs1)Nc1ccc(Cl)cc1[N+](=O)[O-]
Response: Not satisfied

Request: Check CC1(c2ccccc2)NC(=O)N(CC(=O)Nc2ccc(C(=O)/C=C/c3ccc(Br)cc3)cc2)C1=O (configuration not stated) too.
Response: Satisfied

Request: Moving on to the next compound: Cc1cc(=O)oc2cc(OCCCCOc3ccc(/C=C/C(=O)Nc4ccccc4[N+](=O)[O-])cc3)ccc12
Response: Satisfied

Request: Proceed to COc1ccc2[nH]c(=O)c(CSc3ccc(Nc4nccc(-c5ccc(Cl)cc5)n4)cc3)cc2c1
Response: Satisfied

Request: Same question, CCCn1c(=O)c2[nH]c(-c3ccc(OCc4nc5ccc(C)cc5[nH]4)cc3)nc2n(CCC)c1=O this time
Response: Not satisfied

Continuing:
Request: Hello, I need to know if O=C(NO)c1ccc(-c2nc3ccc4[nH]ncc4c3c3c2CCCC3)cc1 has measured growth not below 60%. Thanks!
Response: Not satisfied

Request: Next up: Cc1noc2c(Cc3ccccc3)nn(CC(=O)N/N=C/c3ccc(Br)cc3)c(=O)c12
Response: Satisfied

Request: Please give the result for CC(=O)Nc1ccc(-c2cn(-c3cccc(C(=O)Nc4ccc(Cl)c(C(F)(F)F)c4)c3)nn2)cn1 too.
Response: Not satisfied

Request: Also COc1ccc(-c2nc(-c3ccccc3)c(-c3ccccc3)n2-c2ccc(S(=O)(=O)Nc3ncccn3)cc2)cc1OC ?
Response: Satisfied

Request: O=C(CNc1nc(-c2ccccc2)cs1)Nc1cccc(Cl)c1 ?
Response: Not satisfied

Request: Same read-out for CN(C)c1ccc(/C=C/c2nc3ccccc3c(=O)n2CC(=O)Nc2ccc(Cl)cc2)cc1 ?
Response: Satisfied

Request: // repeat for O=C(Nc1ccc(I)cc1F)c1cc(-c2ccc(F)cc2F)ccc1O and report
Response: Not satisfied

Request: How about O=c1[nH]c2ccc(Cl)cc2cc1CSc1ccc(Nc2nccc(-c3ccc(Cl)cc3)n2)cc1 ?
Response: Satisfied

Request: Now the same for CCN1CCN(c2ccc(NC(=O)Nc3ccc4c(c3F)CCN4c3ccnc(C(=O)NC)c3)cc2C(F)(F)F)CC1
Response: Not satisfied

Request: Now consider COc1ccc(C2NC(=S)NC(C)=C2C(=O)OC(C)C)cc1OC (configuration not stated) .
Response: Satisfied

Request: Record: COc1ccc(C(=O)CSc2nnc(-c3c[nH]c4ccccc34)n2-c2ccccc2)cc1
Response: Not satisfied

---

system: RPMI-8226 leukemia; assay: NCI-60 one-dose screen, 48 h (100 = growth as untreated, 0 = no growth, -100 = all killed); details: 10 µM
About 83,000 compounds went through this panel and 20% of them were active in at least one assay; those are over-represented in the sample as a whole.
quantityName: growth (%)
Use % as the unit, but write only the number.

Request: Item under review: Cn1cc(/C=N/Nc2cccc(Cl)n2)c2ccccc21 . Reported growth?
Response: 47.6

Request: Next molecule up: O=c1c2ccccc2nc(COc2ccccc2)n1/N=C/c1ccc(N2CCCC2)cc1
Response: 64.1

Request: Also Cc1nn(-c2ccccc2)c2ncn(CC(=O)N/N=C/c3c[nH]c4ccccc34)c(=O)c12 , if possible.
Response: 73.2

Request: Then O=C(CS(=O)(=O)c1oc(-c2ccc(Cl)cc2)nc1S(=O)(=O)c1ccccc1)N1CCCC1 ?
Response: -13.8

Further cases:
Request: Requested read-out: growth. Entry: CN1C(=O)N(C)C2SC(N/N=C/c3cccs3)=NC21 (configuration not stated)
Response: 51.9

Request: Next entry: O=C(c1ccc(O)cc1)C1[C@H](c2ccc(Br)cc2)[C@@H](c2ccccc2)NC12C(=O)Nc1ccccc12 (some centres not stated)
Response: 23

Request: Now consider Cc1noc2c(Cc3ccc([N+](=O)[O-])cc3)nn(CC(=O)N/N=C/c3ccc(Cl)cc3)c(=O)c12 and answer again.
Response: 84.7

---

test system: SF-268 CNS; experiment: NCI-60 one-dose screen, 48 h; settings: 10 µM
About 83,000 compounds went through this panel and 20% of them were active in at least one assay; those are over-represented in the sample as a whole. Activity calls are given as the source filed them. Rule for the calls: active = growth percent below 10; inactive = the rest.
Could you please pick one outcome from this set? active, inactive

Request: // outcome(item) with item = O=C(NO)c1ccc(Cn2ccc3c(NCc4ccccc4)ncnc32)cc1
Response: inactive

Request: Same read-out for N#Cc1c(NC(=O)c2ccc(C(F)(F)F)c(Cl)c2)sc2c1CCC(=O)C2 ?
Response: active

New cases:
Request: Test call, this compound: COc1ccc2[nH]cc(/C=N/Nc3cccc(Cl)n3)c2c1
Response: inactive

Request: Now this one: COc1ccc(N(C)c2cc(C#N)nc3ccccc23)cc1/C=C/C(=O)NO
Response: active

---

system: HOP-62 NSCLC; assay: NCI-60 one-dose screen, 48 h; settings: 10 µM
This is part of a sample that, as a whole, favours compounds with a hit. Of some 83,000 tested, about 20% had one in any assay. Calls of active or inactive are those of the source. How the source made its calls: active means growth percent below 10; inactive means the rest.
Answer with one of the outcomes TRUE (active), FALSE (inactive)

Illustrative cases are given below, each with its answer.
Request: # lookup: test call for COc1cc(/C=C/C(=O)c2ccc(S(=O)(=O)NCCNc3nc(Nc4ccc(F)cc4)nc(N(C)C)n3)cc2)cc(OC)c1OC
Response: FALSE

Request: Another molecule: CC(C)c1ccc(C(=O)Nc2sc3c(c2C(N)=O)CCC(=O)C3=O)cc1
Response: FALSE

Others:
Request: State the result this test recorded for CN1CCN(Cc2ccc(C(=O)Nc3cccc(Nc4ccc5cc(O)ccc5n4)c3)cc2C(F)(F)F)CC1 .
Response: TRUE

Request: And then Cc1ccc(-c2nc3ccc(C(=O)N=Nc4c(O)[nH]c5ccc(Br)cc45)cc3[nH]2)cc1 , what is it?
Response: FALSE
